Values from ChEMBL document CHEMBL5058577

Tested on: HEK-293T
Assay: Multiplex assay against HEK293T
Type: toxicity, cell-based
Conditions: human, 12 h, 1 µM, compound concentration 1 uM, replicate 2
Observation Type: Population Pyknosed Nuclei (%)
Give the value, in units of %, as a plain number.

Lab book: Population Pyknosed Nuclei (%) of CC(C)(C)c1ccc(S(=O)(=O)Nc2ccc(Cl)cc2C(=O)c2cc[n+]([O-])cc2)cc1 noted as 10

----------
Test system: HEK-293T
Experiment: Multiplex assay against HEK293T
Format: toxicity, cell-based
Details: human, 12 h, 1 µM, compound concentration 1 uM, replicate 2
Observation Type: Total Cell Count
// no unit, no text: just the number

Consider the worked cases shown below.
| Compound | Total Cell Count |
| --- | --- |
| CN(C)c1ccnc2sc3c(=O)n(N4CCCCCC4)cnc3c12 | 335 |
| Cl.Clc1ccc2nsnc2c1NC1=NCCN1 [TIZANIDINE HYDROCHLORIDE] | 373 |
| CCOc1c2c(c(OCC)c3ncccc13)CN(c1ccc(CS(=O)(=O)NC(=O)Cc3ccccc3OC)cc1C)C2=O | 355 |
| CC1(COc2ccc3c(c2)ncn3-c2ccc3cccc(N4CCC(N)CC4)c3n2)COC1 [CRENOLANIB] | 332 |
| C[C@H]1[C@H]2CC[C@H]3[C@@H]4CC=C5C[C@@H](N(C)C)CC[C@]5(C)[C@H]4CC[C@]23CN1C [CONESSINE] | 356 |

The recorded Total Cell Count with HEK-293T for CN(C)CCCc1cc(C(=O)Nc2ccc(-c3ccncc3)cc2)ccc1O.Cl.Cl was 367

The compound CC[C@H]1OC(=O)[C@H](C)[C@@H](O[C@H]2C[C@@](C)(OC)[C@@H](O)[C@H](C)O2)[C@H](C)[C@@H](O[C@@H]2O[C@H](C)C[C@H](N(C)C)[C@H]2O)[C@@]2(C)CC(C)=C(O2)[C@H](C)[C@@H](O)[C@]1(C)O , when measured on HEK-293T, yielded Total Cell Count of 300

Item c1cc(OCCCN2CCCCC2)ccc1CN1CCCCC1 [JNJ-5207852] ; assay system HEK-293T; Total Cell Count reported as 310

Form field Total Cell Count for item O=C(NCCO)c1cccc(-c2cc(Nc3ccc(OC(F)(F)F)cc3)ncn2)c1 on HEK-293T: 262

Value sought: Total Cell Count, system HEK-293T, item N[C@@]1(C(=O)O)CO[C@H]2[C@H](C(=O)O)[C@H]21 [LY-379268] . Result: 411

Param item: CSCC[C@H](NC=O)C(=O)N[C@@H](CC(C)C)C(=O)N[C@@H](Cc1ccccc1)C(=O)O ; param system: HEK-293T; output Total Cell Count: 437
